Each recorded value in this set is attributed to patent US12012403B2.

target: human CCR6 (Homo sapiens, UniProt P51684); assay: Migration (chemotaxis) assay, hCCR6-transfected Ba/F3 cells toward CCL20; conditions: hCCR6-transfected Ba/F3 cells in human serum; recombinant human CCL20 10 nM; 37° C. 45 minutes; read-out: Potency (IC50 value in the migration assay)
Sequence (P51684 whole entry): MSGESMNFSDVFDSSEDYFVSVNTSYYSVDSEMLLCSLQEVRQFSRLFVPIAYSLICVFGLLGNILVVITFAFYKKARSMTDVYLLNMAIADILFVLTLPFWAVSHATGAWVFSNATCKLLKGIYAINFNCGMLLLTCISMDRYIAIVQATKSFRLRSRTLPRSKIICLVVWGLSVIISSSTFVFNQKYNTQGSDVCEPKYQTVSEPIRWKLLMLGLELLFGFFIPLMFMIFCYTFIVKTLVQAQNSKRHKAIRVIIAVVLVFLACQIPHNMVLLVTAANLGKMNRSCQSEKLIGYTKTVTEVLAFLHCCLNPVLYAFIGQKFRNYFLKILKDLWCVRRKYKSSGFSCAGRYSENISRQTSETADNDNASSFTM
Listing of recorded IC50 by entry.

The examples below pair each entry with its known result.
compound=N#Cc1n[nH]c2ccc(-c3ccc(S(=O)(=O)N4CCC(Nc5ccc(C(F)(F)F)cn5)CC4)cc3)cc12 test_result="< 5 nM"
compound="O=C1NC[C@@H]2CCN(c3ccc(S(=O)(=O)N4CCC(Nc5ccc(C(F)(F)F)cn5)CC4)cc3)C[C@H]12 (racemic)" test_result="100 to 10000 nM"
compound=O=C1NC2(CCN(c3ccc(S(=O)(=O)N4CCC(Nc5ccc(C(F)(F)F)cn5)CC4)cc3)CC2)CO1 test_result="< 5 nM"
compound=NC(=O)N1CCN(c2ccc(S(=O)(=O)N3CCC(Nc4ccc(C(F)(F)F)cn4)CC3)cc2)CC1 test_result="5 to 100 nM"
compound=O=C1CCCCN1c1ccc(S(=O)(=O)N2CCC(Nc3ccc(C(F)(F)F)cn3)CC2)cc1 test_result="100 to 10000 nM"

Prompt: Give reported IC50 for `O=S(=O)(c1ccc(N2CCc3[nH]ncc3C2)cc1)N1CCC(Nc2ccc(C(F)(F)F)cn2)CC1` (human CCR6 (Homo sapiens, UniProt P51684))
Completion: 5 to 100 nM

Prompt: Give reported IC50 for `O=C1NCc2cc(-c3ccc(S(=O)(=O)N4CCC(Nc5ccc(C(F)(F)F)cn5)CC4)cc3)ccc21` (human CCR6 (Homo sapiens, UniProt P51684))
Completion: < 5 nM

Prompt: Give reported IC50 for `CC(C)(C)OC(=O)NCCN1C(=O)C2(CC2)c2cc(-c3ccc(S(=O)(=O)N4CCC(Nc5ccc(C(F)(F)F)cn5)CC4)cc3)cnc21` (human CCR6 (Homo sapiens, UniProt P51684))
Completion: 5 to 100 nM

###

molecular target: human CCR6 (Homo sapiens, UniProt P51684); test: Migration (chemotaxis) assay, hCCR6-transfected Ba/F3 cells toward CCL20; conditions: hCCR6-transfected Ba/F3 cells in human serum; recombinant human CCL20 10 nM; 37° C. 45 minutes; read-out: Potency (IC50 value in the migration assay)
Listing of recorded IC50 by entry.

Prompt: Quickly give me recorded IC50 for O=S(=O)(c1ccc(C2CCCNC2)cc1)N1CCC(Nc2ccc(C(F)(F)F)cn2)CC1 (stereo not shown)
Completion: 100 to 10000 nM

Prompt: Quickly give me recorded IC50 for `N#CC1CCN(c2ccc(S(=O)(=O)N3CCC(Nc4ccc(C(F)(F)F)cn4)CC3)cc2)CC1`
Completion: 100 to 10000 nM

Prompt: Quickly give me recorded IC50 for `O=S(=O)(c1ccc(N2CCC(O)(CO)CC2)cc1)N1CCC(Nc2ccc(C(F)(F)F)cn2)CC1`
Completion: 5 to 100 nM

Prompt: Quickly give me recorded IC50 for `Nc1n[nH]c2ncc(-c3ccc(S(=O)(=O)N4CCC(Nc5ccc(C(F)(F)F)cn5)CC4)cc3)cc12`
Completion: < 5 nM

Prompt: Quickly give me recorded IC50 for `O=S(=O)(c1ccc(-c2ccc3[nH]ccc3c2)cc1)N1CCC(Nc2ccc(C(F)(F)F)cn2)CC1`
Completion: 100 to 10000 nM

Prompt: Quickly give me recorded IC50 for `O=C1NCCc2cc(-c3ccc(S(=O)(=O)N4CCC(Nc5ccc(C(F)(F)F)cn5)CC4)cc3)ccc21`
Completion: < 5 nM

Prompt: Quickly give me recorded IC50 for `O=C1Cc2cc(-c3ccc(S(=O)(=O)N4CCC(Nc5ccc(C(F)(F)F)cn5)CC4)cc3)ncc2N1`
Completion: 100 to 10000 nM
